System: Fibroblast
Protocol: Multiplex assay against human fibroblast
Format: toxicity, cell-based
Conditions Used: 24 h, 1 µM, compound concentration 1 uM, replicate 1
Label met when Population Membrane Permeable-Phenotype (%) is strictly below 20%; at or above that, label not met.

-- ask In plain terms, does CCN(CC)CCCCNc1ncc2cc(-c3cc(OC)cc(OC)c3)c(NC(=O)NC(C)(C)C)nc2n1 come in under 20% for Population Membrane Permeable-Phenotype (%)?
-- reply met

Next:
-- ask In plain terms, does Cc1nc(-c2cn3c(n2)-c2ccc(-c4cnn(C(C)(C)C(N)=O)c4)cc2OCC3)n(C(C)C)n1 come in under 20% for Population Membrane Permeable-Phenotype (%)?
-- reply met

-- ask // next record c1cn2cc(-c3ccc4cn[nH]c4c3)nc(Nc3ccc(N4CCOCC4)cc3)c2n1
-- reply not met

-- ask // next record CN1CCCC(n2nc(Cc3ccc(Cl)cc3)c3ccccc3c2=O)CC1.Cl (stereo unspecified) [AZELASTINE HYDROCHLORIDE]
-- reply not met

-- ask // next record CN1CCN(c2ccc(OC(F)(F)F)c(Nc3ncc4c(n3)-c3c(c(C(N)=O)nn3CCO)CC4)c2)CC1
-- reply not met

-- ask // next record CN(C)C(=O)N[C@H]1CC[C@H](CCN2CCN(c3cccc(Cl)c3Cl)CC2)CC1.Cl [CARIPRAZINE HYDROCHLORIDE]
-- reply not met

-- ask // next record CC[C@H](C)C(=O)O[C@H]1C[C@@H](C)C=C2C=C[C@H](C)[C@H](CC[C@@H]3C[C@@H](O)CC(=O)O3)[C@H]21
-- reply met

-- ask // next record C=CC(=O)Nc1ccc2ncnc(Nc3ccc(OCc4cccc(F)c4)c(Cl)c3)c2c1.Cc1ccc(S(=O)(=O)O)cc1
-- reply not met

-- ask // next record C[C@@]1(C(=O)Nc2ccc(F)nc2)CCCN1c1nc(Nc2cc(C3CC3)n[nH]2)c2cccn2n1
-- reply met

-- ask // next record Cc1[nH]c(/C=C2\C(=O)Nc3ccc(S(=O)(=O)N(C)c4cccc(Cl)c4)cc32)c(C)c1C(=O)N1CCN(C)CC1
-- reply not met

-- ask // next record COc1ncc(-c2ccc3nccc(-c4ccnnc4)c3c2)cc1NS(=O)(=O)c1ccc(F)cc1F
-- reply not met

-- ask // next record COc1cccc([C@@H](C)NCCCc2ccccc2Cl)c1.Cl [TECALCET HYDROCHLORIDE]
-- reply not met

-- ask // next record C=CC(=O)Nc1cc2c(Nc3ccc(F)c(Cl)c3)ncnc2cc1OCCCN1CCOCC1.Cl.Cl [CANERTINIB DIHYDROCHLORIDE]
-- reply met

-- ask // next record Cc1csc2c(N[C@@H](C)CN3CCN(S(=O)(=O)c4ccc(Cl)c(Cl)c4)CC3)ncnc12
-- reply met

-- ask // next record COc1cc(-n2cnc3cc(-c4ccc(Cl)cc4)sc3c2=O)ccc1OCCN1CCCC1
-- reply met

-- ask // next record Cc1cc(C)cc(-c2cnc3cc(Cl)c(-c4cccc(O)c4)cc3c2OCCCN)c1
-- reply met

-- ask // next record CC(C)(O)CNc1ncc(-c2ccnc(Nc3ccnc(Cl)c3)n2)c(CC2CC2)n1
-- reply not met

-- ask // next record CN1CCN(CCOc2cc(OC3CCOCC3)c3c(Nc4c(Cl)ccc5c4OCO5)ncnc3c2)CC1
-- reply met

-- ask // next record O=C1NCN(c2ccccc2)C12CCN(CCCOc1ccc(F)cc1)CC2 [SPIRAMIDE]
-- reply not met
